B1: library; a variant is named by its letters at N, in order (parent)
chain: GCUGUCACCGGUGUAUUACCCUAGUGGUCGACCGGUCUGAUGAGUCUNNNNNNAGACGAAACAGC

Variants of: B1
Experiment: normalized RNA/DNA level without ligand (relative to sTRSVctl = 100) (log10 (% of sTRSVctl)); ligand: hypoxanthine (xanthine aptamer); higher = less ribozyme self-cleavage, higher mRNA level
Conditions: HEK293T, reporter: mCherry (pCS4076), ligand present: no
Metric: normalized RNA/DNA level without ligand (log10)
Form rule: numeric answer, no unit written next to it.

The measured normalized RNA/DNA level without ligand (log10) associated with GCCCCA reads 1.85

The measured normalized RNA/DNA level without ligand (log10) associated with GGAGUG reads 1.41

The measured normalized RNA/DNA level without ligand (log10) associated with CAAUAC reads 1.77

The measured normalized RNA/DNA level without ligand (log10) associated with UCGACA reads 1.72

The measured normalized RNA/DNA level without ligand (log10) associated with AAAAGU reads 1.55

The measured normalized RNA/DNA level without ligand (log10) associated with CGCAGA reads 1.81

The measured normalized RNA/DNA level without ligand (log10) associated with CGCCCU reads 1.95

The measured normalized RNA/DNA level without ligand (log10) associated with UUUCAC reads 1.91

The measured normalized RNA/DNA level without ligand (log10) associated with GAUUUU reads 1.91

The measured normalized RNA/DNA level without ligand (log10) associated with UGGUCC reads 1.93

The measured normalized RNA/DNA level without ligand (log10) associated with CGAGGA reads 1.71

The measured normalized RNA/DNA level without ligand (log10) associated with UCUUGG reads 1.75

The measured normalized RNA/DNA level without ligand (log10) associated with UACCGC reads 1.8

The measured normalized RNA/DNA level without ligand (log10) associated with UUAAGU reads 1.85

The measured normalized RNA/DNA level without ligand (log10) associated with UCACGA reads 1.8

The measured normalized RNA/DNA level without ligand (log10) associated with GUACGG reads 1.4

The measured normalized RNA/DNA level without ligand (log10) associated with ACGCAC reads 1.7

The measured normalized RNA/DNA level without ligand (log10) associated with AUCGAA reads 1.73

The measured normalized RNA/DNA level without ligand (log10) associated with CUGUUA reads 1.66

The measured normalized RNA/DNA level without ligand (log10) associated with AGAGGG reads 1.44

The measured normalized RNA/DNA level without ligand (log10) associated with CGACCC reads 1.98

The measured normalized RNA/DNA level without ligand (log10) associated with CUCCAG reads 1.73

The measured normalized RNA/DNA level without ligand (log10) associated with UAGGCA reads 1.81

The measured normalized RNA/DNA level without ligand (log10) associated with UUUCAA reads 1.87

The measured normalized RNA/DNA level without ligand (log10) associated with CUUGUU reads 1.9

The measured normalized RNA/DNA level without ligand (log10) associated with AUCUCG reads 1.59

The measured normalized RNA/DNA level without ligand (log10) associated with UCUCCU reads 1.87

The measured normalized RNA/DNA level without ligand (log10) associated with UGUGGG reads 1.64

The measured normalized RNA/DNA level without ligand (log10) associated with GAGUCG reads 1.38

The measured normalized RNA/DNA level without ligand (log10) associated with UUACUC reads 2.02

The measured normalized RNA/DNA level without ligand (log10) associated with GCGGAG reads 1.24

The measured normalized RNA/DNA level without ligand (log10) associated with CCGCGC reads 1.7

The measured normalized RNA/DNA level without ligand (log10) associated with AACCAC reads 1.78

The measured normalized RNA/DNA level without ligand (log10) associated with CAAUUU reads 1.83

The measured normalized RNA/DNA level without ligand (log10) associated with ACGCCU reads 1.63

The measured normalized RNA/DNA level without ligand (log10) associated with AAUGGG reads 1.25

The measured normalized RNA/DNA level without ligand (log10) associated with GGUUUC reads 1.92

The measured normalized RNA/DNA level without ligand (log10) associated with CUCGCG reads 1.9

The measured normalized RNA/DNA level without ligand (log10) associated with CUGGCC reads 1.91

The measured normalized RNA/DNA level without ligand (log10) associated with ACGAGG reads 1.04

The measured normalized RNA/DNA level without ligand (log10) associated with CCACUC reads 1.98

The measured normalized RNA/DNA level without ligand (log10) associated with AUUCAG reads 1.58

The measured normalized RNA/DNA level without ligand (log10) associated with GGUCAC reads 1.83

The measured normalized RNA/DNA level without ligand (log10) associated with AGCGGA reads 1.71

The measured normalized RNA/DNA level without ligand (log10) associated with GCUUCC reads 1.83

The measured normalized RNA/DNA level without ligand (log10) associated with GGCUGU reads 1.95

The measured normalized RNA/DNA level without ligand (log10) associated with CCGACA reads 1.79

The measured normalized RNA/DNA level without ligand (log10) associated with AGCGCA reads 1.76

The measured normalized RNA/DNA level without ligand (log10) associated with GAGUCC reads 1.85

The measured normalized RNA/DNA level without ligand (log10) associated with GAACAC reads 1.74

The measured normalized RNA/DNA level without ligand (log10) associated with AACCAU reads 1.8

The measured normalized RNA/DNA level without ligand (log10) associated with GCGAAA reads 1.49

The measured normalized RNA/DNA level without ligand (log10) associated with CCCAUU reads 1.93

The measured normalized RNA/DNA level without ligand (log10) associated with CAUGAU reads 1.73

The measured normalized RNA/DNA level without ligand (log10) associated with AGAUGC reads 1.72

The measured normalized RNA/DNA level without ligand (log10) associated with UCUCGU reads 1.83

The measured normalized RNA/DNA level without ligand (log10) associated with AGAAAU reads 1.83

The measured normalized RNA/DNA level without ligand (log10) associated with CAUUGG reads 1.47

The measured normalized RNA/DNA level without ligand (log10) associated with CCAUAU reads 1.82

The measured normalized RNA/DNA level without ligand (log10) associated with GAUCAC reads 1.87

The measured normalized RNA/DNA level without ligand (log10) associated with UUUGGA reads 1.67

The measured normalized RNA/DNA level without ligand (log10) associated with CCCUGC reads 1.9

The measured normalized RNA/DNA level without ligand (log10) associated with CCAGUU reads 1.93

The measured normalized RNA/DNA level without ligand (log10) associated with GGGCCC reads 1.98

The measured normalized RNA/DNA level without ligand (log10) associated with GCGAGA reads 1.31

The measured normalized RNA/DNA level without ligand (log10) associated with CACAUA reads 1.73

The measured normalized RNA/DNA level without ligand (log10) associated with AGUCCG reads 1.53

The measured normalized RNA/DNA level without ligand (log10) associated with UACGGU reads 1.59

The measured normalized RNA/DNA level without ligand (log10) associated with CGGGGG reads 1.25

The measured normalized RNA/DNA level without ligand (log10) associated with CAAAGC reads 1.77

The measured normalized RNA/DNA level without ligand (log10) associated with AGCCUA reads 1.87

The measured normalized RNA/DNA level without ligand (log10) associated with ACCUUA reads 1.86

The measured normalized RNA/DNA level without ligand (log10) associated with UGUCGU reads 1.61

The measured normalized RNA/DNA level without ligand (log10) associated with GAGCAG reads 1.19

The measured normalized RNA/DNA level without ligand (log10) associated with UACAUU reads 1.86

The measured normalized RNA/DNA level without ligand (log10) associated with GCAAAA reads 1.79

The measured normalized RNA/DNA level without ligand (log10) associated with GUUCUC reads 1.95

The measured normalized RNA/DNA level without ligand (log10) associated with CAAACA reads 1.75

The measured normalized RNA/DNA level without ligand (log10) associated with UCAGCG reads 1.82

The measured normalized RNA/DNA level without ligand (log10) associated with GCGUGG reads 1.13

The measured normalized RNA/DNA level without ligand (log10) associated with UGGAGU reads 1.32

The measured normalized RNA/DNA level without ligand (log10) associated with UGUAAU reads 1.82

The measured normalized RNA/DNA level without ligand (log10) associated with UGGAGG reads 1.26

The measured normalized RNA/DNA level without ligand (log10) associated with CUCUAG reads 1.78

The measured normalized RNA/DNA level without ligand (log10) associated with CGGCUA reads 1.67

The measured normalized RNA/DNA level without ligand (log10) associated with CAAGAC reads 1.82

Value source: the supplement of paper PMC6757056
